Tested on: Male Sprague-Dawley rats
Measurement Notes: Rat paw edema assay (carrageenan-induced)
Type: in vivo
Condition Info: Rattus norvegicus, Table II, po, 3 hr
Description: Male Sprague-Dawley rats (150-200 g) are fasted overnight and are given, po, either vehicle (1% methocel or 5% Tween 80) or a test compound. One hr later, a line is drawn using a permanent marker at the level above the ankle in one hind paw to define the area of the paw to be monitored. The paw volume (V0) is measured using a plethysmometer (Ugo-Basile, Italy) based on the principle of water displacement. […] Data is compared with the vehicle-control values and percent inhibition calculated. […]
Measured Property: ED50

INSERT INTO results (mol, value) VALUES
  ('CC1(C)OC(=O)C(Oc2ccc(F)c(F)c2)=C1c1ccc(S(C)(=O)=O)cc1', '0.14 mg/kg'),
  ('CC1(C)OC(=O)C(Oc2ccc(Cl)cn2)=C1c1ccc(S(C)(=O)=O)cc1', '0.74 mg/kg'),
  ('CC1(C)OC(=O)C(Oc2ccc(Cl)cc2)=C1c1ccc(S(C)(=O)=O)cc1', '7.65 mg/kg'),
  ('CC1(C)OC(=O)C(Oc2cccc(F)c2)=C1c1ccc(S(C)(=O)=O)cc1', '2.4 mg/kg');
